Listing of recorded T/C by entry.
System: CD2F1 mice, L1210 leukemia ip, survival T/C
Assay: NCI In Vivo Anticancer Drug Screen. Data for tumor model L1210 Leukemia (intraperitoneal) in CD2F1 (CDF1) mice
Details: endpoint: mean survival time; dose: 12.5 mg/kg/injection; schedule: Q01DX009 (ip); vehicle: saline with Tween-80; higher = longer survival
Toxic doses and inconclusive results are not listed.

- chemical_smiles: "OCCC(c1ccccc1)(c1ccccc1)c1ccccc1"
  T/C: "108 % of control"
- chemical_smiles: "CN(C)CCCN=Cc1ccc(O)cc1O.CN(C)CCCN=Cc1ccc(O)cc1O.[Ni+2]"
  T/C: "94 % of control"
- chemical_smiles: "CN(C)CCCN1c2ccccc2C(C)(C)c2ccccc21"
  T/C: "105 % of control"
- chemical_smiles: "NC(=O)c1c(F)c(F)c(Oc2c(F)c(F)c(Oc3c(F)c(F)c(C(N)=O)c(F)c3F)c(F)c2F)c(F)c1F"
  T/C: "103 % of control"
